Hello, the source for this data is patent US10407467B2, in case you need it.

Test system: Acinetobacter baumannii
Experiment: MIC, compound in combination with a second agent (broth microdilution)
Type: cell-based
Conditions: 1:1 (wt:wt) combination with Rifampicin; MIC = total drug concentration; strain CCUG57249
Structures can show the parent of a compound that is named as a salt. Bridge positions count the residues as written; N and C are the ends. Square brackets hold non-standard residues; d marks the D form. Peptide text beside a SMILES is read from it. * marks the point of attachment. ξ: configuration not given here. Cyclohexanoyl(cis-4-NH2) = N[C@H]1CC[C@@H](C(=O)*)CC1; X6 = N[C@@H](CC(=O)*)c1ccc2ccccc2c1; Thr(3ξ) = CC(O)[C@H](N)C(=O)O; Dab = NCC[C@H](N)C(=O)O; X4 = NC1CCCC1C(=O)*
quantity.name: MIC A. baumannii CCUG57249

{"compound": "CC(C)C[C@@H]1NC(=O)[C@@H](Cc2ccccc2)NC(=O)[C@H](CCN)NC(=O)[C@@H](NC(=O)[C@H](CCN)NC(=O)[C@@H](NC(=O)C2CCCC2N)C(C)O)CCNC(=O)[C@H](C(C)O)NC(=O)[C@H](CCN)NC(=O)[C@H](CCN)NC1=O (stereo partly drawn) [Example 7] (X4-[Thr(3ξ)][Dab][Dab][Dab][dF]L[Dab][Dab][Thr(3ξ)]; lactam 3-C)", "observed": "≤0.06 micrograms/mL"}
{"compound": "CC(C)C[C@@H]1NC(=O)[C@@H](Cc2ccccc2)NC(=O)[C@H](CCN)NC(=O)[C@@H](NC(=O)[C@H](CCN)NC(=O)[C@@H](NC(=O)C[C@H](N)c2ccc3ccccc3c2)C(C)O)CCNC(=O)[C@H](C(C)O)NC(=O)[C@H](CCN)NC(=O)[C@H](CCN)NC1=O (stereo partly drawn) [Example 38, trifluoroacetate salt] (X6-[Thr(3ξ)][Dab][Dab][Dab][dF]L[Dab][Dab][Thr(3ξ)]; lactam 3-C)", "observed": "0.25 micrograms/mL"}
{"compound": "CC(C)C[C@@H]1NC(=O)[C@@H](Cc2ccccc2)NC(=O)[C@H](CCN)NC(=O)[C@@H](NC(=O)[C@H](CCN)NC(=O)[C@@H](NC(=O)[C@H]2CC[C@@H](N)CC2)C(C)O)CCNC(=O)[C@H](C(C)O)NC(=O)[C@H](CCN)NC(=O)[C@H](CCN)NC1=O (stereo partly drawn) [Example 20] ({Cyclohexanoyl(cis-4-NH2)}-[Thr(3ξ)][Dab][Dab][Dab][dF]L[Dab][Dab][Thr(3ξ)]; lactam 3-C)", "observed": "≤0.06 micrograms/mL"}

---

Test system: Escherichia coli
Assay: MIC, compound in combination with a second agent (broth microdilution)
Assay type: cell-based
Conditions: 1:1 (wt:wt) combination with Rifampicin; MIC = total drug concentration; strain NCTC9001
Bridge positions count the residues as written; N and C are the ends. Square brackets hold non-standard residues; d marks the D form. Peptide text beside a SMILES is read from it. ξ: configuration not given here. Thr(3ξ) = CC(O)[C@H](N)C(=O)O; Dab = NCC[C@H](N)C(=O)O; Inp = O=C(O)C1CCNCC1

{"molecule": "CC(C)C[C@@H]1NC(=O)[C@@H](Cc2ccccc2)NC(=O)[C@H](CCN)NC(=O)[C@@H](NC(=O)[C@H](CCN)NC(=O)[C@@H](NC(=O)C2CCNCC2)C(C)O)CCNC(=O)[C@H](C(C)O)NC(=O)[C@H](CCN)NC(=O)[C@H](CCN)NC1=O (some centres unmarked) [Example 29] (H-[Inp][Thr(3ξ)][Dab][Dab][Dab][dF]L[Dab][Dab][Thr(3ξ)]; lactam 4-C)", "MIC E. coli NCTC9001, micrograms/mL": 0.25}
{"molecule": "CC(C)C[C@@H]1NC(=O)[C@@H](CC(C)C)NC(=O)[C@H](CCN)NC(=O)[C@@H](NC(=O)[C@H](CCN)NC(=O)[C@@H](NC(=O)C(O)C2CCCCC2)C(C)O)CCNC(=O)[C@H](C(C)O)NC(=O)[C@H](CCN)NC(=O)[C@H](CCN)NC1=O (single isomer, unassigned; isomer 1) [Example 31]", "MIC E. coli NCTC9001, micrograms/mL": 0.5}

---

Test system: Escherichia coli
Experiment: MIC, compound in combination with a second agent (broth microdilution)
Assay type: cell-based
Conditions: 1:1 (wt:wt) combination with Rifampicin; MIC is total drug concentration
Counter-ions that a name gives are not always drawn. Bridge positions count the residues as written; N and C are the ends. Square brackets hold non-standard residues; d marks the D form. Peptide text beside a SMILES is read from it. * marks the point of attachment. ξ: configuration not given here. Cyclohexylacetyl = O=C(CC1CCCCC1)*; Thr(3ξ) = CC(O)[C@H](N)C(=O)O; X5 = O=C(C[C@@H]1CCCCN1)*; Dab = NCC[C@H](N)C(=O)O; X3 = O=C([C@H]1CCCNC1)*; Inp = O=C(O)C1CCNCC1
// MIC E. coli NCTC9001 lookup, one value per entry
quantity.name: MIC E. coli NCTC9001 (micrograms/mL)

{"molecule": "CC(C)C[C@@H]1NC(=O)[C@@H](Cc2ccccc2)NC(=O)[C@H](CCN)NC(=O)[C@@H](NC(=O)[C@H](CCN)NC(=O)[C@@H](NC(=O)C[C@@H]2CCCCN2)C(C)O)CCNC(=O)[C@H](C(C)O)NC(=O)[C@H](CCN)NC(=O)[C@H](CCN)NC1=O (stereo partly shown) [Example 33, trifluoroacetate salt] (X5-[Thr(3ξ)][Dab][Dab][Dab][dF]L[Dab][Dab][Thr(3ξ)]; lactam 3-C)", "unit.spec": "micrograms/mL", "prefix.operator": "=", "observed": 0.125}
{"molecule": "CC(C)C[C@@H]1NC(=O)[C@@H](Cc2ccccc2)NC(=O)[C@H](CCN)NC(=O)[C@@H](NC(=O)[C@H](CCN)NC(=O)[C@@H](NC(=O)[C@H]2CCCNC2)[C@@H](C)O)CCNC(=O)[C@H]([C@@H](C)O)NC(=O)[C@H](CCN)NC(=O)[C@H](CCN)NC1=O [Example 37, trifluoroacetate salt] (X3-T[Dab][Dab][Dab][dF]L[Dab][Dab]T; lactam 3-C)", "unit.spec": "micrograms/mL", "prefix.operator": "≤", "observed": 0.06}
{"molecule": "CC(C)C[C@@H]1NC(=O)[C@@H](Cc2ccccc2)NC(=O)[C@H](CCN)NC(=O)[C@@H](NC(=O)[C@H](CCN)NC(=O)[C@@H](NC(=O)C2CCNCC2)C(C)O)CCNC(=O)[C@H](C(C)O)NC(=O)[C@H](CCN)NC(=O)[C@H](CCN)NC1=O (stereo partly shown) [Example 29] (H-[Inp][Thr(3ξ)][Dab][Dab][Dab][dF]L[Dab][Dab][Thr(3ξ)]; lactam 4-C)", "unit.spec": "micrograms/mL", "prefix.operator": "=", "observed": 0.25}
{"molecule": "CC(C)C[C@@H]1NC(=O)[C@@H](Cc2ccccc2)NC(=O)[C@H](CCN)NC(=O)[C@@H](NC(=O)[C@H](CCN)NC(=O)[C@@H](NC(=O)CC2CCCCC2)C(C)O)CCNC(=O)[C@H](C(C)O)NC(=O)[C@H](CCN)NC(=O)[C@H](CCN)NC1=O (stereo partly shown) [Example C4, TFA salt, reference compound] (Cyclohexylacetyl-[Thr(3ξ)][Dab][Dab][Dab][dF]L[Dab][Dab][Thr(3ξ)]; lactam 3-C)", "unit.spec": "micrograms/mL", "prefix.operator": "=", "observed": 0.5}

---

Test system: Acinetobacter baumannii
Experiment: MIC, compound in combination with a second agent (broth microdilution)
Format: cell-based
Conditions: 1:1 (wt:wt) combination with Rifampicin; MIC = total drug concentration; strain CCUG57249
Counter-ions that a name gives are not always drawn. Numbered stars: 1 amine (or outer) side, 2 acyl side, 3 side chain; on linkers, the order of the positions; unused ones are H or OH. Bridge positions count the residues as written; N and C are the ends. Square brackets hold non-standard residues; d marks the D form. Peptide text beside a SMILES is read from it. * marks the point of attachment. ξ: configuration not given here. Achc(trans-4) = O=C([C@H]1CC[C@H](N[*:1])CC1)[*:2]; ξHexahydromandeloyl = O=C(C(O)C1CCCCC1)*; ξβ3hGly(cHex) = NC(CC(=O)*)C1CCCCC1; Thr(3ξ) = CC(O)[C@H](N)C(=O)O; Dab = NCC[C@H](N)C(=O)O; Dap = NC[C@H](N)C(=O)O
// MIC A. baumannii CCUG57249 lookup, one value per entry

{"compound": "CC(C)C[C@@H]1NC(=O)[C@@H](Cc2ccccc2)NC(=O)[C@H](CCN)NC(=O)[C@@H](NC(=O)[C@H](CCN)NC(=O)[C@@H](NC(=O)[C@H]2CC[C@H](N)CC2)[C@@H](C)O)CCNC(=O)[C@H]([C@@H](C)O)NC(=O)[C@H](CCN)NC(=O)[C@H](CCN)NC1=O [Example 17] (H-[Achc(trans-4)]T[Dab][Dab][Dab][dF]L[Dab][Dab]T; lactam 4-C)", "MIC A. baumannii CCUG57249": "<0.06 micrograms/mL"}
{"compound": "CC(C)C[C@@H]1NC(=O)[C@@H](Cc2ccccc2)NC(=O)[C@H](CCN)NC(=O)[C@@H](NC(=O)[C@H](CN)NC(=O)[C@@H](NC(=O)C(O)C2CCCCC2)C(C)O)CCNC(=O)[C@H](C(C)O)NC(=O)[C@H](CCN)NC(=O)[C@H](CCN)NC1=O (stereo partly drawn) [Example 45, TFA salt] (ξHexahydromandeloyl-[Thr(3ξ)][Dap][Dab][Dab][dF]L[Dab][Dab][Thr(3ξ)]; lactam 3-C)", "MIC A. baumannii CCUG57249": "0.25 micrograms/mL"}
{"compound": "CC(C)C[C@@H]1NC(=O)[C@@H](Cc2ccccc2)NC(=O)[C@H](CCN)NC(=O)[C@@H](NC(=O)[C@H](CN)NC(=O)[C@@H](NC(=O)CC(N)C2CCCCC2)C(C)O)CCNC(=O)[C@H](C(C)O)NC(=O)[C@H](CCN)NC(=O)[C@H](CCN)NC1=O (stereo partly drawn) [Example 47, TFA salt] ({ξβ3hGly(cHex)}-[Thr(3ξ)][Dap][Dab][Dab][dF]L[Dab][Dab][Thr(3ξ)]; lactam 3-C)", "MIC A. baumannii CCUG57249": "≤0.06 micrograms/mL"}
